B1: EHEE_rd4_0086 (parent)
chain: EIHIRTNGEEQARKVYKMLAKRNYDVKIEQHNGQWVVTAS

- Variants of: B1
- test_description: folding stability dG (cDNA display proteolysis); higher = more stable
- stated_conditions: PBS, room temperature
Classify on folding stability dG using class A (below 1 kcal/mol), class B (1 kcal/mol to below 2 kcal/mol), class C (2 kcal/mol or more)

Exam item: Input "Y24F" ; output its category
Marked response: class B

Exam item: Input "V37M" ; output its category
Marked response: class A

Exam item: Input "R13M" ; output its category
Marked response: class B

New cases:
Exam item: Input "R5L" ; output its category
Marked response: class C

Exam item: Input "Q30D" ; output its category
Marked response: class B

Exam item: Input "I4D" ; output its category
Marked response: class A

Exam item: Input "Y16W" ; output its category
Marked response: class B

Exam item: Input "M18K" ; output its category
Marked response: class B

Exam item: Input "E1R" ; output its category
Marked response: class C

Exam item: Input "E10R" ; output its category
Marked response: class C

Exam item: Input "V26M" ; output its category
Marked response: class A

Exam item: Input "N32R" ; output its category
Marked response: class B

Exam item: Input "V26W" ; output its category
Marked response: class A

Exam item: Input "T38M" ; output its category
Marked response: class B
